# Procedure Summary: Extrapolated human dosimetry (OLINDA/EXM, ICRP-89 phantoms)
# Assay Context: ICRP 89 Adult Female, extrapolated
Measured Quantity: Absorbed dose (AD average) Adrenals (mGy/Mbq)
Could you give me the number in mGy/Mbq? Just the number is fine.

IN: Respond only with Absorbed dose (AD average) Adrenals recorded for N#C[C@@H]1CC(F)(F)CN1C(=O)CNC(=O)c1ccnc2ccc(OCCCCNC(=O)CC[C@H](NC(=O)CN3CCN(CC(=O)[O-])CCN(CC(=O)[O-])CCN(CC(=O)[O-])CC3)C(=O)NCCCCOc3ccc4nccc(C(=O)NCC(=O)N5CC(F)(F)C[C@H]5C#N)c4c3)cc12.[177Lu+3] [[^177Lu]Lu-DO3A.Glu.(FAPI)2]
OUT: 9.96E-03

---

# Procedure Summary: Extrapolated human dosimetry (OLINDA/EXM, ICRP-89 phantoms)
# Assay Context: ICRP 89 Adult Male, extrapolated
Measured Quantity: Absorbed dose (AD average) Heart Wall (mGy/Mbq)
Could you give me the number in mGy/Mbq? Just the number is fine.

IN: Respond only with Absorbed dose (AD average) Heart Wall recorded for N#C[C@@H]1CC(F)(F)CN1C(=O)CNC(=O)c1ccnc2ccc(OCCCCNC(=O)CC[C@H](NC(=O)CCC(C(=O)O)N3CCN(CC(=O)[O-])CCN(CC(=O)[O-])CCN(CC(=O)[O-])CC3)C(=O)NCCCCOc3ccc4nccc(C(=O)NCC(=O)N5CC(F)(F)C[C@H]5C#N)c4c3)cc12.[177Lu+3] (stereo partly shown) [[^177Lu]Lu-DOTAGA.Glu.(FAPI)2]
OUT: 3.66E-02

---

# Procedure Summary: Extrapolated human dosimetry (OLINDA/EXM, ICRP-89 phantoms)
# Assay Context: ICRP 89 Adult Male, extrapolated
# Description: To address inter-animal variability, the TIACs for each source organ were calculated from both the mean nTACs and the nTACs obtainend from fitting the mean ± 1 standard deviation (SD) of the normalized time-activity data, providing upper and lower bounds. […] The TIACs, for [177Lu]Lu-DOTAGA.Glu.(FAPI)2 and [177Lu]Lu-DO3A.Glu.(FAPI)2, were determined by time integration of the nTACs. […]
Would you mind telling me the reported Absorbed dose (AD average) Prostate of each entry?
Could you give me the number in mGy/Mbq? Just the number is fine.

IN: Respond only with Absorbed dose (AD average) Prostate recorded for N#C[C@@H]1CC(F)(F)CN1C(=O)CNC(=O)c1ccnc2ccc(OCCCCNC(=O)CC[C@H](NC(=O)CCC(C(=O)O)N3CCN(CC(=O)[O-])CCN(CC(=O)[O-])CCN(CC(=O)[O-])CC3)C(=O)NCCCCOc3ccc4nccc(C(=O)NCC(=O)N5CC(F)(F)C[C@H]5C#N)c4c3)cc12.[177Lu+3] (stereo partly shown) [[^177Lu]Lu-DOTAGA.Glu.(FAPI)2]
OUT: 2.04E-02

IN: Respond only with Absorbed dose (AD average) Prostate recorded for N#C[C@@H]1CC(F)(F)CN1C(=O)CNC(=O)c1ccnc2ccc(OCCCCNC(=O)CC[C@H](NC(=O)CCC(C(=O)O)N3CCN(CC(=O)[O-])CCN(CC(=O)[O-])CCN(CC(=O)[O-])CC3)C(=O)NCCCCOc3ccc4nccc(C(=O)NCC(=O)N5CC(F)(F)C[C@H]5C#N)c4c3)cc12.[161Tb+3] (stereo partly shown) [[^161Tb]Tb-DOTAGA.Glu.(FAPI)2]
OUT: 2.77E-02

IN: Respond only with Absorbed dose (AD average) Prostate recorded for N#C[C@@H]1CC(F)(F)CN1C(=O)CNC(=O)c1ccnc2ccc(OCCCCNC(=O)CC[C@H](NC(=O)CN3CCN(CC(=O)[O-])CCN(CC(=O)[O-])CCN(CC(=O)[O-])CC3)C(=O)NCCCCOc3ccc4nccc(C(=O)NCC(=O)N5CC(F)(F)C[C@H]5C#N)c4c3)cc12.[161Tb+3] [[^161Tb]Tb-DO3A.Glu.(FAPI)2]
OUT: 2.81E-02

IN: Respond only with Absorbed dose (AD average) Prostate recorded for N#C[C@@H]1CC(F)(F)CN1C(=O)CNC(=O)c1ccnc2ccc(OCCCCNC(=O)CC[C@H](NC(=O)CN3CCN(CC(=O)[O-])CCN(CC(=O)[O-])CCN(CC(=O)[O-])CC3)C(=O)NCCCCOc3ccc4nccc(C(=O)NCC(=O)N5CC(F)(F)C[C@H]5C#N)c4c3)cc12.[177Lu+3] [[^177Lu]Lu-DO3A.Glu.(FAPI)2]
OUT: 2.07E-02
